B1: library; a variant is named by its letters at N, in order (parent)
chain: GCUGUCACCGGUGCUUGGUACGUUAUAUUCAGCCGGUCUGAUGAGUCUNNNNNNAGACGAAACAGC

variants of: B1; test: normalized RNA/DNA level with ligand (relative to sTRSVctl = 100) (log10 (% of sTRSVctl)); HEK293T overexpressing SLC46A1; ligand concentration (+) RNA-Seq: 6 mM; higher = less ribozyme self-cleavage, higher mRNA level; conditions: with (6R,S)-folinic acid; ligand present: yes
Listed here: items and their measured normalized RNA/DNA level with ligand (log10).
No unit in the answer, only the number.

Please give the measured normalized RNA/DNA level with ligand (log10) for this variant: "CCGUAU"
2.02
